Test system: Trypanosoma brucei rhodesiense
experiment: Antitrypanosomal activity against Trypanosoma rhodesiense infected in mouse assessed as increase in survival time by 30 days at 5 mg/kg relative to control
Format: functional
valueKind: MST
Write the quantity with the unit trailing the number.

Check out these entries, answers already filled in.
# get_value(readout='MST', item= Cl.Cl.N=C(N)c1ccc(-c2ccc(-c3ccc(C(=N)N)cc3)s2)cc1 )
4 days

# get_value(readout='MST', item= N=C(N)c1ccc(/C=C/c2ccc(C(=N)N)cc2O)cc1 [HYDROXYSTILBAMIDINE] )
5 days

# get_value(readout='MST', item= N=C(N)c1ccc(-c2ccc(-c3ccc(C(=N)N)cc3)o2)cc1 [FURAMIDINE] )
5 days

# get_value(readout='MST', item= N=C(N)c1ccc(OCCCCCOc2ccc(C(=N)N)cc2)cc1 [PENTAMIDINE] )
5 days

# batch size: 2; output MST per entry
1. N=C(N)c1ccc(/C=C/c2ccc(C(=N)N)cc2)cc1 [STILBAMIDINE]
2. Cn1c(-c2ccc([C+](N)N)cc2)ccc1-c1ccc([C+](N)N)cc1.[Cl-].[Cl-]

5 days
4 days

---

For each of the molecules below, state its MST.
System: Trypanosoma brucei rhodesiense
experiment: Antitrypanosomal activity against Trypanosoma rhodesiense infected in mouse assessed as increase in survival time by 30 days at 40 mg/kg relative to control
Assay type: functional
Answers are plain numbers, in days.

Check out these entries, answers already filled in.
Enter reported MST observed with Trypanosoma brucei rhodesiense for CC1CN[C+](c2ccc(-c3ccc(-c4ccc([C+]5NCC(C)N5)cc4)n3C)cc2)N1.[Cl-].[Cl-] (stereo not given)
4

Enter reported MST observed with Trypanosoma brucei rhodesiense for Cn1c(-c2ccc([C+]3NCCN3)cc2)ccc1-c1ccc([C+]2NCCN2)cc1.[Cl-].[Cl-]
4

Enter reported MST observed with Trypanosoma brucei rhodesiense for N=C(N)c1ccc(OCCCCCOc2ccc(C(=N)N)cc2)cc1
5

Enter reported MST observed with Trypanosoma brucei rhodesiense for N=C(N)c1ccc(/C=C/c2ccc(C(=N)N)cc2)cc1
5

Enter reported MST observed with Trypanosoma brucei rhodesiense for [Cl-].[Cl-].c1cc([C+]2NCCCN2)ccc1-c1ccc(-c2ccc([C+]3NCCCN3)cc2)s1
4

# batch size: 5; output MST per entry
1. Cl.Cl.N=C(N)c1ccc(-c2ccc(-c3ccc(C(=N)N)cc3)s2)cc1
2. N=C(N)c1ccc(/C=C/c2ccc(C(=N)N)cc2O)cc1 [HYDROXYSTILBAMIDINE]
3. Cn1c(-c2ccc([C+](N)N)cc2)ccc1-c1ccc([C+](N)N)cc1.[Cl-].[Cl-]
4. Cn1c(-c2ccc([C+]3NCCCN3)cc2)ccc1-c1ccc([C+]2NCCCN2)cc1.[Cl-].[Cl-]
5. N=C(N)c1ccc(-c2ccc(-c3ccc(C(=N)N)cc3)o2)cc1

1. 5
2. 5
3. 5
4. 5
5. 5

---

For each of the molecules below, state its MST.
Tested on: Trypanosoma brucei rhodesiense
experiment: Antitrypanosomal activity against Trypanosoma rhodesiense infected in mouse assessed as increase in survival time by 30 days at 20 mg/kg relative to control
Type: functional
One number for each entry, in days.

# get_value(readout='MST', item= N=C(N)c1ccc(OCCCCCOc2ccc(C(=N)N)cc2)cc1 [PENTAMIDINE] )
5

# get_value(readout='MST', item= Cl.Cl.N=C(N)c1ccc(-c2ccc(-c3ccc(C(=N)N)cc3)s2)cc1 )
5

# get_value(readout='MST', item= Cn1c(-c2ccc([C+]3NCCN3)cc2)ccc1-c1ccc([C+]2NCCN2)cc1.[Cl-].[Cl-] )
3

# get_value(readout='MST', item= N=C(N)c1ccc(-c2ccc(-c3ccc(C(=N)N)cc3)o2)cc1 [FURAMIDINE] )
5

Kindly consider the entry below.
# get_value(readout='MST', item= Cn1c(-c2ccc([C+]3NCCCN3)cc2)ccc1-c1ccc([C+]2NCCCN2)cc1.[Cl-].[Cl-] )
3

These data points were gathered from ChEMBL document CHEMBL3272241.
